# measurementTarget: plasma dipeptidylpeptidase IV (Mus musculus, UniProt P28843)
# Construct: The blood samples were centrifuged at 6000 rpm for 2 minutes to separate plasma; tissue Charles River Laboratories Japan; host or cells: plasma of male ICR mice
# Sequence (P28843 37-760 limits assumed): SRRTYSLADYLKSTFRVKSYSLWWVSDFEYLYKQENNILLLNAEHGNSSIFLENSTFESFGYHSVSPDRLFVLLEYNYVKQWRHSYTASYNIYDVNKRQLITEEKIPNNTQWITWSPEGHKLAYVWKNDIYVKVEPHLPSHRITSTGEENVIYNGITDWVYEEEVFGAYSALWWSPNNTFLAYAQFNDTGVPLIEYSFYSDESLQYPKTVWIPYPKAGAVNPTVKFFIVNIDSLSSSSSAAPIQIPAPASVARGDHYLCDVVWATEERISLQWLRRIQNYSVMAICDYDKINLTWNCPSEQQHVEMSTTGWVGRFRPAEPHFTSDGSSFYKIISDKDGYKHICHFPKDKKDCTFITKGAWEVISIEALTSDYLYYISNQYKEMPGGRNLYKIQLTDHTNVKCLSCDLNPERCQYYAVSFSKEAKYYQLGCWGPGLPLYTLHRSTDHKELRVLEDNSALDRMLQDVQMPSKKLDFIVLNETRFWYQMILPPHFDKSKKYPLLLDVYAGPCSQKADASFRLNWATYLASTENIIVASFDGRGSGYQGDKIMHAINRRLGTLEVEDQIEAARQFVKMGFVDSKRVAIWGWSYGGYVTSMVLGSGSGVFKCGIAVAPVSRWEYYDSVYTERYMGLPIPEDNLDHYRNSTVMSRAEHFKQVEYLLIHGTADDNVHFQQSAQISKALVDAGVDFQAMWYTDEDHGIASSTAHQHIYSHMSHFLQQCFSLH
# methodDescription: Inhibition of plasma dipeptidylpeptidase IV activity in mice by oral administration
# Assay type: in vivo
# experimentalSetup: male ICR mice, 0.1 mg/mL at 10 mL/kg, plasma 30 minutes after administration vs before
# Method: Each compound was suspended in 0.3% sodium carboxymethylcellulose to a concentration of 0.1 mg/mL. The preparation was orally administered to 8-week old male ICR mice (Charles River Laboratories Japan) at a dose of 10 mL/kg. […] The inhibition was determined from the decrease in the enzymatic activity from the initial activity (% inhibition={(activity before administration−activity after administration)/(activity before administration)}×100).

- compound: "CN(C)C(=O)C12CCC(NCC(=O)N3C[C@@H](F)C[C@H]3C#N)(CC1)CC2 [Example 9]"
  measurementTarget: "plasma dipeptidylpeptidase IV (Mus musculus, UniProt P28843)"
  inhibition at 100 µg/mL (stock) [%]: 87
- compound: "N#C[C@@H]1C[C@H](F)CN1C(=O)CNC12CCC(C(N)=O)(CC1)CC2 [Example 1]"
  measurementTarget: "plasma dipeptidylpeptidase IV (Mus musculus, UniProt P28843)"
  inhibition at 100 µg/mL (stock) [%]: 71
- compound: "N#C[C@@H]1C[C@H](F)CN1C(=O)CNC12CCC(C(=O)N3CCC3)(CC1)CC2 [Example 15]"
  measurementTarget: "plasma dipeptidylpeptidase IV (Mus musculus, UniProt P28843)"
  inhibition at 100 µg/mL (stock) [%]: 66
- compound: "C=CCNC(=O)C12CCC(NCC(=O)N3C[C@@H](F)C[C@H]3C#N)(CC1)CC2 [Example 52]"
  measurementTarget: "plasma dipeptidylpeptidase IV (Mus musculus, UniProt P28843)"
  inhibition at 100 µg/mL (stock) [%]: 70
- compound: "CC(C)(C)NC(=O)C12CCC(NCC(=O)N3C[C@@H](F)C[C@H]3C#N)(CC1)CC2 [Example 30]"
  measurementTarget: "plasma dipeptidylpeptidase IV (Mus musculus, UniProt P28843)"
  inhibition at 100 µg/mL (stock) [%]: 77
